Where do these numbers come from? They come from ChEMBL document CHEMBL3286212.

# Protocol description: Cytotoxicity against Chinese hamster V79 cells by sulforhodamine B assay
# Type: cell-based, Cricetulus griseus
Quick reference for CC50 among some compounds

>  <Smiles code>
Cc1c(C(=O)N2CCN(C(C)C)CC2)sc2c1[nH]c(=O)c1ccccc12

>  <CC50>
> 10 µM

$$$$
>  <Smiles code>
CCN1CCN(C(=O)c2sc3c([nH]c(=O)c4ccccc43)c2C)CC1

>  <CC50>
> 10 µM

$$$$
>  <Smiles code>
Cn1c(C(=O)N2CCCNCC2)cc2[nH]c(=O)c3ccccc3c21

>  <CC50>
> 10 µM

$$$$
>  <Smiles code>
Cc1c(C(=O)N2CCC(N(C)C)CC2)sc2c1[nH]c(=O)c1ccccc12

>  <CC50>
> 10 µM

$$$$

State the recorded CC50 for this entry: `O=C(c1cc(Cc2n[nH]c(=O)c3ccccc23)ccc1F)N1CCN(C(=O)C2CC2)CC1`
8.98 µM

----------
# Measured target: Poly [ADP-ribose] polymerase 1 (Homo sapiens)
# Protocol description: Inhibition of human recombinant PARP-1 after 1 hr by ELISA
Observation type: IC50
Reply with a number, then the unit it belongs to.

>  <Smiles code>
CC(C)N1CCN(C(=O)c2cc3[nH]c(=O)c4ccccc4c3n2C)CC1

>  <IC50>
830 nM

$$$$
>  <Smiles code>
CN1CCCN(C(=O)c2cc3[nH]c(=O)c4ccccc4c3n2C)CC1

>  <IC50>
200 nM

$$$$
>  <Smiles code>
CCN1CCN(C(=O)c2sc3c([nH]c(=O)c4ccccc43)c2C)CC1

>  <IC50>
79 nM

$$$$

State the recorded IC50 for this entry: `CN(C)C1CCN(C(=O)c2cc3c(n2C)-c2ccccc2C(=O)NC3)CC1`
6430 nM

State the recorded IC50 for this entry: `CN1CCN(C(=O)c2cc3[nH]c(=O)c4ccccc4c3n2C)CC1`
119 nM

State the recorded IC50 for this entry: `Cc1c(C(=O)N2CCN(C(C)C)CC2)sc2c1[nH]c(=O)c1ccccc12`
86 nM

State the recorded IC50 for this entry: `CN1CCCN(C(=O)c2cc3c(n2C)-c2ccccc2C(=O)NC3)CC1`
10000 nM

----------
# Measured target: Poly [ADP-ribose] polymerase 1 (Homo sapiens, UniProt P09874)
# Sequence (P09874 whole entry): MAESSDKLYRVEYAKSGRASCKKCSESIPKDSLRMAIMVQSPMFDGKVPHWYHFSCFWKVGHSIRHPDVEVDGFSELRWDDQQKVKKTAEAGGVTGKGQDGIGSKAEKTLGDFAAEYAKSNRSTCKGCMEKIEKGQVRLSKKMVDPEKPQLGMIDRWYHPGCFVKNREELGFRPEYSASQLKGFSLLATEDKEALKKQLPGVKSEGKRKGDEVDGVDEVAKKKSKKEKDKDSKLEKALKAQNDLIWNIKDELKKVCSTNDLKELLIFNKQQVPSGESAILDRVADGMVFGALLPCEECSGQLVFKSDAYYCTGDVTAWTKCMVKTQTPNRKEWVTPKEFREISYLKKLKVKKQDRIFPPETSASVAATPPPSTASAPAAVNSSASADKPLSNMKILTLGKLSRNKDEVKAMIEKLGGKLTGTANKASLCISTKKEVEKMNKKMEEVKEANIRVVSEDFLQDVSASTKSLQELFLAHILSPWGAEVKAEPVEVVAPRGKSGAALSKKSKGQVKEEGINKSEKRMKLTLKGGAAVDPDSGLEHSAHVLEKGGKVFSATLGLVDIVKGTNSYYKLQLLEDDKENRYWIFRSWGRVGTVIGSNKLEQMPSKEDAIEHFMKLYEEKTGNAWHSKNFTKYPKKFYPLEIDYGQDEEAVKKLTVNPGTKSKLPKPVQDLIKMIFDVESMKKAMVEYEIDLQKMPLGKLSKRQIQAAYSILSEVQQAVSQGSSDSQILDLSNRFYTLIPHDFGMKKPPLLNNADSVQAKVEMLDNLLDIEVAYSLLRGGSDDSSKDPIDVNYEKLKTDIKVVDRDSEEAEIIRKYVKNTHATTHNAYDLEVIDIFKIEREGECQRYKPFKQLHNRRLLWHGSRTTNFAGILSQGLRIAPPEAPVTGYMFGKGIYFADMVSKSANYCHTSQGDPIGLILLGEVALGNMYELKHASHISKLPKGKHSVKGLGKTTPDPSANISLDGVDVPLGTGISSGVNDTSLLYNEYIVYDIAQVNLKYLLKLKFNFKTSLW
# Protocol description: Inhibition of human recombinant PARP-1 after 1 hr by ELISA
Observation type: pIC50
pIC50 here is simply -log10 of the concentration when that concentration is written in mol/L.

Answered cases to consult:
>  <Smiles code>
Cn1c(C(=O)NCCN2CCCC2)cc2c1-c1ccccc1C(=O)NC2

>  <pIC50>
5.09

$$$$
>  <Smiles code>
COc1cccc(CN2CCN(C(=O)c3cc4[nH]c(=O)c5ccccc5c4n3C)CC2)c1

>  <pIC50>
6.40

$$$$
>  <Smiles code>
Cc1c(C(=O)NCCN2CCN(C)CC2)sc2c1[nH]c(=O)c1ccccc12

>  <pIC50>
6.55

$$$$
>  <Smiles code>
Cc1c(C(=O)N2CC=C(c3ccc(F)cc3)CC2)sc2c1[nH]c(=O)c1ccccc12

>  <pIC50>
6.88

$$$$
>  <Smiles code>
Cc1c(C(=O)NCCN2CCOCC2)sc2c1[nH]c(=O)c1ccccc12

>  <pIC50>
7.08

$$$$

Let's switch to this molecule now.
State the recorded pIC50 for this entry: `CN(C)CCNC(=O)c1cc2[nH]c(=O)c3ccccc3c2n1C`
5.96

----------
# Measured target: Poly [ADP-ribose] polymerase 1 (Homo sapiens, UniProt P09874)
# Protocol description: Inhibition of human recombinant PARP-1 after 1 hr by ELISA
Observation type: IC50 (nM)
Numeric answer only, unit nM assumed.

Answered cases to consult:
>  <Smiles code>
Cc1c(C(=O)N2CCC(N(C)C)CC2)sc2c1[nH]c(=O)c1ccccc12

>  <Unit text>
nM

>  <IC50>
29

$$$$
>  <Smiles code>
Cn1c(C(=O)N2CCCNCC2)c(Cl)c2[nH]c(=O)c3ccccc3c21

>  <Unit text>
nM

>  <IC50>
100

$$$$

State the recorded IC50 for this entry: `Cn1c(C(=O)NCCCN2CCOCC2)cc2[nH]c(=O)c3ccccc3c21`
100

State the recorded IC50 for this entry: `Cn1c(C(=O)N2CCN(Cc3ccccc3)CC2)cc2[nH]c(=O)c3ccccc3c21`
860
